Provenance of the data: the supplement of paper PMC12042874

test: amyloid nucleation score (Sup35N fusion, yeast selection) (log enrichment); library NNK3; higher = more nucleation; inactive = no reads after selection;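 also: zero at mode of non-aggregating sequences after 7 days selection at 30°C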
REPORTED_ENDPOINT: amyloid nucleation score

Observe how each entry below is paired with its result.
[
  {
    "SUBSTANCE": "NVNEQSHPM",
    "amyloid nucleation score": "inactive"
  },
  {
    "SUBSTANCE": "FASTVCEIPSFPWTKPRIMV",
    "amyloid nucleation score": "inactive"
  },
  {
    "SUBSTANCE": "LELVRG",
    "amyloid nucleation score": "inactive"
  },
  {
    "SUBSTANCE": "FDRDWDMFFVRIVSQCGMLW",
    "amyloid nucleation score": "inactive"
  },
  {
    "SUBSTANCE": "VAKHNAR",
    "amyloid nucleation score": "inactive"
  }
]

So what's the measured amyloid nucleation score for this one? `YSGLDSCVD` inactive

Now consider `ELISGLLRVGLDLKKAVSFD` and answer again. inactive

Now consider `GSLIMSLAR` and answer again. inactive

Now consider `KDPEVQVRK` and answer again. inactive

Now consider `STYRHLDRSL` and answer again. inactive

Now consider `LVWYKSDLISIVRHTVDSCC` and answer again. inactive

Now consider `SMQVQMTWLCDRSSLGQRNL` and answer again. 1.61

Now consider `CGFDMY` and answer again. 1.84

Now consider `SNIRVKFHTPSIGMRCLRTR` and answer again. inactive

Now consider `KRWTQINYFDWRLLRFATRS` and answer again. inactive

Now consider `ARFISVCEHEARLRERTCMC` and answer again. inactive

Now consider `KWGSATTCFI` and answer again. 0.067

Now consider `MIYAFVGYGVGTSGGVARES` and answer again. inactive

Now consider `TRNYFNPVSRRGVTVSRGLY` and answer again. inactive

Now consider `LNPLPQRLYSPCSLKFCNDG` and answer again. inactive
